Quick reference: interaction score of the listed items.
system_tested: T1, P6-AA-1HAA-T
T1 chain: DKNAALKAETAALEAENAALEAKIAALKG
assay_remarks: two-hybrid library CCmax;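 also: natural log of median RNA to DNA barcode read ratio; higher means stronger binding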
condition_context: mean of both orientations
readout_name: interaction score

> print(dat)
                                     binder  number
1  DENAALEAKVAALKAKNAALKAEIAALEG [P5-AA-1HAA-V]    1.93
2  DENAALEAKRAALKAKNAALKAEIAALEG [P5-AA-1HAA-R]    1.54
3  DENAALEAKEAALKAKNAALKAEIAALEG [P5-AA-1HAA-E]  -0.112
4  DENAALEAKSAALKAKNAALKAEIAALEG [P5-AA-1HAA-S]   0.235
